Provenance of the data: patent US20100267712A1

- Test system: SMN2-linked luciferase-reporter gene construct
- assay comment: SMN Splice Reporter Assay (SMN2-linked luciferase reporter)
- Assay type: cell-based
- run conditions: cervical carcinoma cell lines, SMN2 splice luciferase reporter
result type: EC50 (nM)

In the examples that follow, each entry is paired with its recorded EC50.
{"columns": ["compound", "reading"],
 "data": [
  ["CCC(C)c1ccc2c(c1)C(=O)N(c1ccc3c(c1)cc(C)n3C)C2 (stereo not drawn) [Example 123329]", 569],
  ["CCCCOc1ccc2c(c1)C(=O)N(c1ccc3c(ccn3C)c1)C2 [Example 121922]", 225],
  ["CCCc1ccc2c(c1)C(=O)N(c1ccc3c(c1)cc(C)n3C)C2 [Example 123014]", 323],
  ["Cn1ccc2ccc(N3Cc4ccc(OC5CCCC5)cc4C3=O)cc21 [Example 124860]", 135],
  ["Nc1ccc2c(c1)C(=O)N(c1ccc3ccsc3c1)C2 [Example 122036]", 347]
]}

a = COc1ccc2c(c1)C(=O)N(c1ccc3ncccc3c1)C2 [Example 120286]
b = COc1ccc2c(c1)C(=O)N(c1ccc3c(c1)ncn3C)C2 [Example 120291]
c = COc1ccc2c(c1)C(=O)N(c1ccc3c(c1)c(C)c(C)n3C)C2 [Example 120597]
d = COc1ccc2c(c1)C(=O)N(c1ccc3c(c1)c(C)cn3C)C2 [Example 122184]
e = COc1ccc2c(c1)CN(c1ccc3sccc3c1)C2=O [Example 121643]
Ask | Give the ascending ranking of the items by reported EC50. The response must list the labels following the requested ordering.
Reply | a, e, b, d, c
(a: 30 nM, e: 45 nM, b: 111 nM, d: 409 nM, c: 777 nM)

I = Cn1ccc2ccc(N3Cc4ccc(Br)cc4C3=O)cc21 [Example 120117]
II = CCc1ccc2c(c1)C(=O)N(c1ccc3ccsc3c1)C2 [Example 122683]
Ask | For the pair I and II , which entry has the numerically smaller recorded EC50? Select an item and report its label.
Reply | II
(II: 125 nM, I: 829 nM)

1 = Cn1ccc2cc(N3Cc4ccc(OC(F)(F)C(F)Cl)cc4C3=O)ccc21 (stereo not drawn) [Example 122180]
2 = COc1ccc2c(c1)C(=O)N(c1ccc3ccc(OC)nc3c1)C2 [Example 123936]
Ask | For the pair 1 and 2 , which entry has the numerically smaller recorded EC50? Select an item and report its label.
Reply | 1

----------
- System: SMN2-linked luciferase-reporter gene construct
- assay comment: SMN Splice Reporter Assay (SMN2-linked luciferase reporter)
- Assay type: cell-based
- run conditions: fold-increase of luciferase over baseline reading of transformed cells without any test compound
- Excerpt: As previously discussed, SMN1 is the gene deleted in SMA patients; the SMN2 gene remains intact in both SMA and normal patients. […] Cervical carcinoma cell lines were transformed with a SMN2-linked luciferase-reporter gene construct. […] Luciferase sequences are in the correct translational reading frame only when the SMN2 sequences are spliced according to the normal SMN1 mechanism (e.g., splicing to include exon 7), which allows for translation of the stable SMN protein. […]
Form field: Fold Increase (one value per entry).
// no unit string in output, number only

{"columns": ["compound", "Fold Increase"],
 "data": [
  ["Cc1cccc2c1C(=O)N(c1ccc3ccn(C)c3c1)C2", 1.784],
  ["Cn1ccc2cc(N3Cc4cccc([N+](=O)[O-])c4C3=O)ccc21", 1.262],
  ["O=C1c2ccccc2CN1c1ccc(Br)nc1", 1.373],
  ["Cc1cc2ccc(N3Cc4ccc(-c5ccccc5)cc4C3=O)cc2n1C", 1.115],
  ["CCCn1ccc2cc(N3Cc4ccc(OC)cc4C3=O)ccc21", 1.59],
  ["Cc1cc2cc(N3Cc4ccc(OC(F)F)cc4C3=O)ccc2n1C", 1.361],
  ["CCCCOc1ccc2c(c1)C(=O)N(c1ccc3c(ccn3C)c1)C2", 1.301],
  ["COCc1cc2cc(N3Cc4ccc(OC)cc4C3=O)ccc2n1C", 1.305],
  ["COc1cccc2c1C(=O)N(c1ccc3ccn(C)c3c1)C2", 1.17],
  ["COc1ccc2c(c1)C(=O)N(c1ccc3c(ccn3C)n1)C2", 1.39]
]}

Entry CC(C)C(=O)Nc1ccc2c(c1)C(=O)N(c1ccc3c(ccn3C)c1)C2 [Example 124863] , Fold Increase reported as 1.251

Entry Cn1ccc2cc(N3Cc4ccc(S(C)(=O)=O)cc4C3=O)ccc21 , Fold Increase reported as 1.336

Entry O=C1c2cc(OC(F)F)ccc2CN1c1ccc2ccsc2c1 , Fold Increase reported as 1.766
